# credit: patent US10253076B2

Assayed Target: HLA-A*02:01 (Homo sapiens, UniProt P04439, D140Y/D185E/D98H/E176V/E277Q/G131W/G231S/I119V/I121R/I166T/I218V/L300P/L318F/N151K/N90K/P208A/P217A/Q86G/Q94H/R138H/R169H/T345S)
Test Summary: MHC binding assay (UV-ligand exchange, beta2m ELISA, peptide exchange yield)
Run Conditions: binding of HLA-class I restricted peptides to HLA-A*02:01, ranged by peptide exchange yield (UV-ligand exchange, β2m ELISA)
Endpoint: Peptide exchange

// worked examples, Peptide exchange included
60 (SLTIDGIYYV; listed as Homo sapiens) [compound 60] :: ″++++″ (≥75% = ++++)
580 (LLMENAERV; listed as Homo sapiens) [compound 580] :: ″++″ (≥20% = ++)
565 (ALQETPTSV; listed as Homo sapiens) [compound 565] :: ″++″ (≥20% = ++)
91 (IMQDFPAEIFL; listed as Homo sapiens) [compound 91] :: ″++++″ (≥75% = ++++)

Quick check: Peptide exchange of 387 (ALFQATAEV; listed as Homo sapiens) [compound 387] ? ″++++″ (≥75% = ++++)
